TARGET_OF_ASSAY: T1, CGH-1_(248–420) K277E (C. elegans, UniProt Q95YF3 248-420, K277E)
T1 construct: Mutant of m1 made with the MutanBEST kit; source: E. coli Gold (DE3), purified (Ni-chelating resin, SEC Superdex 75)
T1 sequence (looked up): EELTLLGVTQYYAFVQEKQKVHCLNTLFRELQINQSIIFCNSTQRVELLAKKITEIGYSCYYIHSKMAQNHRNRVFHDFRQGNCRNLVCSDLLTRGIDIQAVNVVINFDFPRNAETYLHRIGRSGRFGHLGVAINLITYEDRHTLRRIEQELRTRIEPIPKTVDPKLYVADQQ
MEASUREMENT_PROTOCOL: ITC; ligand (peptide or CAR-1 fragment, 0.5 mM) injected into CGH-1_(248-420) or mutant (0.05 mM) in the cell; 20 °C; Buffer B (20 mM Tris-HCl pH 7.5, 150 mM NaCl); one-binding-site model
EXPERIMENTAL_PARAMETERS: both partners purified
MEASUREMENT_LABEL: Kd
Field: value (include unit after the number)

*Q* Recorded Kd for LADPIDFDLDSDFDFAENLKLFEKDENDDQYYETVEK (Enhancer of decapping-3 (EDC-3, also called LSm16), C. elegans, FDF fragment, residues 235-271; Printed with free NH2 and COOH ends; also called EDC-3 peptide; EDC-3 FDF-FEK peptide; source: synthetic peptide (GL Biochem, Shanghai)) [EDC-3 FDF peptide (EDC-3_(235–271))] , please?
*A* 5.97 µM
